targetOfAssay: PpTRPA1 (Patiria pectinifera, UniProt A0A1Y1C7R6)
Construct: cRNA in Xenopus laevis oocytes; no tag told; PCR primers imply N-terminus MEGDE and C-terminus EHDGSNTA
Sequence (A0A1Y1C7R6 1-1200): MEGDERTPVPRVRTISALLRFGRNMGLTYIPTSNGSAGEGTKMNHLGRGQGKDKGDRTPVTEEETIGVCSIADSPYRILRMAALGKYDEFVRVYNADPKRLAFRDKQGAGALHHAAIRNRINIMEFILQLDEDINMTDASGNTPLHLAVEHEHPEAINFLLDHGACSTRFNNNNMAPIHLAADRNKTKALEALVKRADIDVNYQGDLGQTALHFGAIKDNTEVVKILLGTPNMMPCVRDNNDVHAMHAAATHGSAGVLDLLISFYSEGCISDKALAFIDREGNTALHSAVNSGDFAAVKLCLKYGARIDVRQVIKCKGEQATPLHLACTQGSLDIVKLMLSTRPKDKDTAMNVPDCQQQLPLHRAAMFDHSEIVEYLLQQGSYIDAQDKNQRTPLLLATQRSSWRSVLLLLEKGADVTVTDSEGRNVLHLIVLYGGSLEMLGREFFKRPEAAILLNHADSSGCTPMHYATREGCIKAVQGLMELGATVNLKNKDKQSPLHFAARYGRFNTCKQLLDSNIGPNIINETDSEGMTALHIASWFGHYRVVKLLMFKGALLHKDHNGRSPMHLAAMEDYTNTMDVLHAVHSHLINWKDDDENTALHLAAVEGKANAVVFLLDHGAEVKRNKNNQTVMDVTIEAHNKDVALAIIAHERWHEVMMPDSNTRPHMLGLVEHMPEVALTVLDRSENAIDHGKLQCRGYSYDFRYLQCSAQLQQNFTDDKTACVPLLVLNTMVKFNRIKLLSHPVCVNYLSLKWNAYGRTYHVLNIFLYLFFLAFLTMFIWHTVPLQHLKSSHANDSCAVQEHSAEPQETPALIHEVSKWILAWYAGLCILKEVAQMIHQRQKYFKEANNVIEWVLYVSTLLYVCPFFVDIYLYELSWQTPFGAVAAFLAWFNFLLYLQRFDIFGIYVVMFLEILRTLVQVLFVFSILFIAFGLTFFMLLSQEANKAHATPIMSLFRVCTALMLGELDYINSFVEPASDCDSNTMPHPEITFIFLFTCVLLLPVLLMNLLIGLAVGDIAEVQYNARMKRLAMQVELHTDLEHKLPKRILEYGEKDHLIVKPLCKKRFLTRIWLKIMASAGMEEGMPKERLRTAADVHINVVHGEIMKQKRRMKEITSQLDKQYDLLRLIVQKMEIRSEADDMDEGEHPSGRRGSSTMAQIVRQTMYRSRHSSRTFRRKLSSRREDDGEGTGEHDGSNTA
measurementNotes: two-electrode voltage clamp, Xenopus laevis oocytes
measuredEndpoint: EC50 (µM)
Express the result in µM but write the number alone.

### Prompt GET /values?readout=EC50&item= C=CCN=C=S [AITC, allyl isothiocyanate]
### Response 117
